biological target: D(1A) dopamine receptor (Homo sapiens, UniProt P21728); experiment: Binding affinity to dopamine D1 receptor (unknown origin)
Sequence (P21728 whole entry): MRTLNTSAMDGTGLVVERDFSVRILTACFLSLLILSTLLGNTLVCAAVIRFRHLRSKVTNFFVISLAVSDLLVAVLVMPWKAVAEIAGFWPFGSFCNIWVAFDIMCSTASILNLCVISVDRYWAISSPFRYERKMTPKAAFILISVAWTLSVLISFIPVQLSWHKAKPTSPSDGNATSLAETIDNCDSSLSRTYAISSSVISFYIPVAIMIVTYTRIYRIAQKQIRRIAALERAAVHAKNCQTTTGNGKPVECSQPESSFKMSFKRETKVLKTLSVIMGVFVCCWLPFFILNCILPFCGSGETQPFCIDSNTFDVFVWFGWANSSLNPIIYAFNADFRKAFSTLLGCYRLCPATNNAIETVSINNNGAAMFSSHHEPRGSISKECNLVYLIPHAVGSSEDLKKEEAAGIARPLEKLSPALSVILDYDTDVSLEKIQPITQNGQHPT
pKi: −log10 of the molar value.
quantity: pKi

{"molecule": "Cc1nc2c(o1)CC(CN1CCC(c3c[nH]c4cc(F)ccc34)CC1)CC2=O (stereo not drawn)", "quantity": "pKi", "observed": 7.47}
{"molecule": "O=C1CC(CN2CCC(c3c[nH]c4cc(F)ccc34)CC2)Cc2nc(N3CCCC3)sc21 (stereo not drawn)", "quantity": "pKi", "observed": 7.44}
{"molecule": "O=C1CC(CN2CCC(c3noc4cc(F)ccc34)CC2)Cc2[nH]ncc21 (stereo not drawn)", "quantity": "pKi", "observed": 7.41}
